// data source = patent EP2042491A1

This section presents compounds with their documented chromatographic logP values.
- Method Summary: physchem
Parameter: chromatographic logP

> print(dat)
                                    compound  reported
 1  Cc1nnc(Cl)c(-c2c(F)cccc2Cl)c1Oc1ccc(Cl)c(Cl)c1 [2-75]      4.41
 2  Cc1nnc(Cl)c(-c2c(F)cccc2Cl)c1Oc1cccc(N(C)C)c1 [2-78]      3.85
 3  Cc1nnc(Cl)c(-c2c(F)cccc2Cl)c1N1CCOCC1 [1-94]      2.39
 4  Cc1nnc(Cl)c(-c2c(F)cccc2Cl)c1N1CCC2(C)CC2C1 (stereo not drawn) [1-96]      4.25
 5  Cc1nnc(Cl)c(-c2c(F)cccc2Cl)c1NC1CC1 [1-86]      2.35
 6  Cc1n[nH]c(=O)c(-c2c(F)cccc2Cl)c1O [VII-1]      0.88
 7  Cc1nnc(Cl)c(-c2c(F)cccc2Cl)c1Oc1cc(Cl)cc(Cl)c1 [2-81]      4.61
 8  Cc1nnc(Cl)c(-c2c(F)cccc2Cl)c1NC(C)C(C)C (racemic) [1-82]      3.21
 9  Cc1nnc(Cl)c(-c2c(F)cccc2Cl)c1N1CC[Si](C)(C)CC1 [1-95]      4.75
10  Cc1nnc(Cl)c(-c2c(F)cccc2Cl)c1Oc1ccc(Cl)cc1 [2-60]      4.13
11  Cc1nnc(Cl)c(-c2c(F)cccc2Cl)c1N[C@H](C)C(C)C [1-100]      3.22
12  Cc1nnc(Cl)c(-c2c(F)cccc2F)c1[S+]([O-])c1ccc(Cl)cc1 (stereo not drawn) [4-1]      3.47
13  Cc1nnc(Cl)c(-c2c(F)cccc2F)c1SC(C)C [3-25]      3.57
14  Cc1nnc(Cl)c(-c2c(F)cccc2Cl)c1Oc1ccc(Cl)cc1Cl [2-70]      4.46
15  COc1ccc(COc2c(C)nnc(Cl)c2-c2c(F)cccc2F)cc1 [2-42]      3.35
16  Cc1nnc(Cl)c(-c2c(F)cccc2Cl)c1Cl [VIII-1]      3.24
17  Cc1nnc(Cl)c(-c2c(F)cccc2F)c1Oc1ccc(Cl)cc1 [2-39]      3.86
18  Cc1cccc(Sc2c(C)nnc(Cl)c2-c2c(F)cccc2Cl)c1 [3-38]      4.41
19  Cc1nnc(Cl)c(-c2c(F)cccc2Cl)c1Sc1ccc(F)cc1 [3-44]      4.03
20   Cc1nnc(Cl)c(-c2c(F)cccc2F)c1Cl [VIII-2]      2.93
21  Cc1nnc(Cl)c(-c2c(F)cccc2Cl)c1Oc1cccc(C(F)(F)F)c1 [2-68]      4.13
